Values from paper PMC11472053

- test-target: T1, BANP BEN K314A (human, UniProt Q8N9N5 205-325, K314A)
- T1 sequence: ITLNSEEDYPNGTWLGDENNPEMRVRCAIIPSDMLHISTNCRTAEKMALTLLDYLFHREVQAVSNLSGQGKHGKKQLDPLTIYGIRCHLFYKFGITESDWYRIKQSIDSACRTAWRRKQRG
- procedure-text: ITC; ITC: 20 mM Tris pH 7.5, 200 mM NaCl, 2 mM beta-mercaptoethanol, 20 C; EMSA: 20 mM Tris pH 7.0, 200 mM NaCl, 2 mM DTT, 4 C, 1.2% agarose in TAE
- condition: protein: recombinant; tags: His-SUMO or His-MBP, cleaved; chain copies: 2; blunt, self-complementary
pKd: −log10 of the molar value.
endpoint: pKd

> print(dat)
                                     binder  numeric.readout
1  12-CGCG (dsDNA) DNA 1: ATCTCGCGAGAT DNA 2: ATCTCGCGAGAT             4.60
